Measured values drawn from ChEMBL document CHEMBL3785035 for this set.

Known remaining at 2 h, 100 µM of a selection of molecules
Test: Metabolic stability in rat liver S9 fraction assessed as parent compound remaining at 100 uM preincubated for 5 mins followed by UDPGA addition measured after 2 hrs by LC-MS/MS analysis
Type: ADME, subcellular
Conditions: read-out: Stability
PROPERTY: remaining at 2 h, 100 µM

>>> df
                                smiles_code  result_value
0  CN[C@@H]1[C@H](O)[C@H](NC)[C@H]2O[C@]3(O)[C@H](O[C@@H]2[C@H]1O)O[C@H](C)C[C@H]3NC(=O)Cc1cc(Cl)c(F)cn1         > 93%
1  CN[C@@H]1[C@H](O)[C@H](NC)[C@H]2O[C@]3(O)[C@H](O[C@@H]2[C@H]1O)O[C@H](C)C[C@H]3NC(=O)Cc1ccc(F)cn1         > 93%
2  CN[C@@H]1[C@H](O)[C@H](NC)[C@H]2O[C@]3(O)[C@H](O[C@@H]2[C@H]1O)O[C@H](C)C[C@H]3NC(=O)Cc1cc(Cl)c(OC)cn1         > 93%
